test system: A498; experiment: NCI tumour cell line growth inhibition, 48 h
Activity calls are given as the source filed them. No stated cut-off is given here; in the data, active = GI50 up to about 1.1 µM and inactive = higher.
Outcome field: choose from active, inactive

Per the assay record, what outcome was assigned to O=C(Cn1c2c(c3ccccc31)CCCC2)N1CCCC1 ?
inactive

Per the assay record, what outcome was assigned to CN(C)CCNC(=O)C1COc2cc(-c3cc(=O)c4ccccc4o3)ccc2O1 (stereo unspecified) ?
inactive

Per the assay record, what outcome was assigned to Clc1ccc(-c2c(C3=NCCN3)nnn2-c2ccccc2)cc1 ?
inactive

Per the assay record, what outcome was assigned to CO/N=C(\C)c1ccc(Nc2c3ccccc3nc3occc23)cc1 ?
active

Per the assay record, what outcome was assigned to CCOc1ccc2nc(NC(=O)C(=O)C(C(=O)c3ccccc3F)C3OC(=O)c4ccccc43)sc2c1 (stereo unspecified) ?
inactive

Per the assay record, what outcome was assigned to CC1=NNC(=O)C1C1CC(c2c[nH]c3ccccc23)=NN(C(N)=O)C1=O (stereo unspecified) ?
inactive

Per the assay record, what outcome was assigned to CCOC(=O)C1=C(C)N(Cc2ccccc2)C2(O)C=CC(=O)C3C(=O)N(c4ccccc4)C(=O)C132 (stereo unspecified) ?
inactive

Per the assay record, what outcome was assigned to CCOC(=O)C(C#N)C1=CC(=O)C(=O)c2ccc(O)cc21 (stereo unspecified) ?
inactive

Per the assay record, what outcome was assigned to O=C1CSC(=S)N1c1ccc(F)cc1F ?
inactive

Per the assay record, what outcome was assigned to O=[N+]([O-])c1cn[n+]([O-])c2ccccc12 ?
inactive

Per the assay record, what outcome was assigned to O=Cc1c(O)c(C(=O)Nc2ccc3[nH]c(=O)[nH]c3c2)cc2ccccc12 ?
inactive

====

test system: HOP-62; experiment: NCI tumour cell line growth inhibition, 48 h
Active and inactive are the calls of the source. Cut-off read from the data, not from the text of the source: active = GI50 up to about 1.1 µM and inactive = higher.
Please provide measured GI50 for the entries that follow.

get_value(item= CC(C)c1c(O[Si](C(C)C)(C(C)C)C(C)C)cc2c(c1O)CC[C@H]1C(C)(C)CCC[C@]21C , readout=GI50) returns > 100 µM (inactive)

get_value(item= Cc1ccc(C)c2c1CCc1cc3ccccc3nc1-2 , readout=GI50) returns > 100 µM (inactive)

get_value(item= Cc1ccc(S(=O)(=O)N2CCC2c2ccccc2)cc1 (stereo not given) , readout=GI50) returns > 100 µM (inactive)

get_value(item= [O-][N+]1=C(c2ccccc2)/C(=C2/C(c3ccccc3)=[N+]([O-])c3ccccc32)Cc2ccccc21 , readout=GI50) returns 32.4 µM (inactive)

get_value(item= C[C@@]1(O)C2CC3CC1(c1ccccc1)CC(/C3=N/O)/C2=N\O (stereo not given in full) , readout=GI50) returns > 100 µM (inactive)

====

test system: MCF7; test: NCI tumour cell line growth inhibition, 48 h
Calls of active or inactive are those of the source. Rule as the data show it: active = GI50 up to about 1.1 µM and inactive = higher.
Outcome field: choose from active, inactive

Per the assay record, what outcome was assigned to COc1ccccc1C1c2cc3c(cc2OC(N2CCCC2)C1C)OCO3 (configuration not stated) ?
inactive

Per the assay record, what outcome was assigned to Cc1nc2sc3ccccc3n2c(=O)c1/N=N/c1ccc(Br)cc1 ?
inactive

Per the assay record, what outcome was assigned to Cc1ncc(-c2nnnn2-c2ccccc2)c(C(=O)O)n1 ?
inactive

Per the assay record, what outcome was assigned to O=c1c(Cl)c(Cl)c(=O)c2sc3cc(Cl)ccc3[nH]c1=2 ?
inactive

Per the assay record, what outcome was assigned to CCNCCNC(=O)c1ccc(I)cc1 ?
inactive

Per the assay record, what outcome was assigned to O=C(Cn1c2c(c3ccccc31)CCCC2)N1CCCC1 ?
inactive

Per the assay record, what outcome was assigned to CN(Cc1cc(Cl)cc(Cl)c1)CC(C(=O)c1ccccc1)c1ccccc1 (configuration not stated) ?
inactive

Per the assay record, what outcome was assigned to Cc1c(C(=O)N2CCN(c3ccc([N+](=O)[O-])cc3)CC2)[n+]([O-])c2cc(Cl)c(Cl)cc2[n+]1[O-] ?
inactive

Per the assay record, what outcome was assigned to O=C(O)CN1CCN(CC(=O)O)CCN(CC(=O)O)CC1 ?
inactive

Per the assay record, what outcome was assigned to c1ccc(/N=C(\N2CCCC2)N(CCN2CCCC2)c2ccccc2)cc1 ?
inactive

Per the assay record, what outcome was assigned to Cc1c(C(=O)O)n2c(S)nnc2c2ccccc12 ?
inactive

Per the assay record, what outcome was assigned to CC1=C(C#N)C2C(=C(C)N1)C(N)=Nc1ccccc12 (configuration not stated) ?
inactive

Per the assay record, what outcome was assigned to Cc1cn(Cc2cn(CC3OC(n4cc(C)c(=O)[nH]c4=O)CC3O)nn2)c(=O)[nH]c1=O (configuration not stated) ?
inactive

Per the assay record, what outcome was assigned to Cc1cccc(CNNC(=O)c2cc[n+]([BH2-]C#N)cc2)c1 ?
inactive

Per the assay record, what outcome was assigned to CC(C)C(/N=C/c1ccccc1O)C(=O)O (configuration not stated) ?
inactive

Per the assay record, what outcome was assigned to O=C1c2ccccc2C(C2c3ccccc3C(=O)c3cc(Br)ccc32)c2ccc(Br)cc21 (configuration not stated) ?
inactive

Per the assay record, what outcome was assigned to Cc1ccc(C2SC(=N)Nc3c2c(C)nn3C(=O)c2ccc(Cl)cc2)cc1 (configuration not stated) ?
inactive

Per the assay record, what outcome was assigned to COc1cc(C2SC(=N)Nc3c2c(C)nn3C(=O)Cc2ccccc2)ccc1O (configuration not stated) ?
inactive

Per the assay record, what outcome was assigned to C/C(=N\NC(=S)NCCCNC(=S)N/N=C(\C)c1ccccn1)c1ccccn1 ?
inactive

Per the assay record, what outcome was assigned to C=CCC(SC)C1=C(C)C(=O)c2ccccc21 (configuration not stated) ?
inactive

Per the assay record, what outcome was assigned to COc1ccc2c(c1)c1nn(CCN3CCCCC3)c3ccc4c(=O)n(CCN(C)C)c(=O)n2c4c13 ?
active

Per the assay record, what outcome was assigned to CC(=O)n1[nH]c(=O)n(-c2ccc(Cl)cc2)c1=O ?
inactive

Per the assay record, what outcome was assigned to COc1cc2nc(-c3ccccc3)cc(O)c2cc1OC ?
inactive

Per the assay record, what outcome was assigned to O=C(O)c1nc2ccccc2nc1Nc1ccc(F)cc1 ?
inactive

Per the assay record, what outcome was assigned to O=c1c2c3c(sc2nc2n1N=C(c1ccc(Cl)cc1)CS2)CCCC3 ?
inactive

Per the assay record, what outcome was assigned to c1ccc(/N=C(/Nc2ccccc2)N2CCCC2)cc1 ?
inactive

Per the assay record, what outcome was assigned to O=C(/C=C/c1ccccc1Br)c1ccccc1 ?
active

====

system: Malme-3M; test: NCI tumour cell line growth inhibition, 48 h
The source made the active and inactive calls. Rule as the data show it: active = GI50 up to about 1.1 µM and inactive = higher.
Outcome field: choose from T (active), F (inactive)

Per the assay record, what outcome was assigned to CC(C)CCCCCCCCCCCCC(=O)NCC(=O)NC1C(O)C(O)C(Nc2[nH]cnc3ncnc2-3)OC1C(O)CO (stereo not drawn) ?
T

Per the assay record, what outcome was assigned to O=C1NC2(CCCCC2)C2CCCCC=C12 (stereo not drawn) ?
F

Per the assay record, what outcome was assigned to N=C(N)SCc1cccc(-c2nc3ccccc3c(=O)o2)c1 ?
F

Per the assay record, what outcome was assigned to CCCCCCCC1(N=[N+]=[N-])C(=O)Nc2ccccc2C1=O (stereo not drawn) ?
F

Per the assay record, what outcome was assigned to N=C(N)N/N=C/c1nc2sccn2c1[N+](=O)[O-] ?
F

Per the assay record, what outcome was assigned to CCCCC(=O)N/S(=N/C(=O)c1ccccc1)C(Cl)(Cl)Cl (stereo not drawn) ?
F

Per the assay record, what outcome was assigned to O=C(CC/C(CC(=O)c1ccc(Cl)cc1)=N/O)Nc1ccc(Cl)c(Cl)c1 ?
F

Per the assay record, what outcome was assigned to COc1ccc2c(c1)c1nn(CCN3CCCCC3)c3ccc4c(=O)n(CCN(C)C)c(=O)n2c4c13 ?
T

Per the assay record, what outcome was assigned to COc1ccc(-c2oc3c(OC)c(OC)c(OC)c(OC)c3c(=O)c2OC)cc1OC ?
F

Per the assay record, what outcome was assigned to CCOC(=O)C1=C(C)N(Cc2ccccc2)C2(O)C=CC(=O)C3C(=O)N(c4ccccc4)C(=O)C132 (stereo not drawn) ?
F

Per the assay record, what outcome was assigned to O=C1c2ccccc2C(C2c3ccccc3C(=O)c3cc(Br)ccc32)c2ccc(Br)cc21 (stereo not drawn) ?
F

Per the assay record, what outcome was assigned to Cc1nc2sc3ccccc3n2c(=O)c1/N=N/c1ccc(Br)cc1 ?
F

Per the assay record, what outcome was assigned to C=C(/C=C/C=C(\C)CCC=C(C)C)[C@@H]1CC[C@]2([C@H](CCCO)/C(=C(/C)C=O)CC[C@]2(C)O)[C@@H]1O ?
F

====

test system: A498; assay: NCI tumour cell line growth inhibition, 48 h
The source made the active and inactive calls. Cut-off read from the data, not from the text of the source: active = GI50 up to about 1.1 µM and inactive = higher. Peptide text beside a SMILES is read from it.
Please provide measured GI50 for the entries that follow.

get_value(item= N=C(N)SCc1cccc(-c2nc3ccccc3c(=O)o2)c1 , readout=GI50) returns > 100 µM (inactive)

get_value(item= CCOc1cc(C(c2c(O)c3ccccc3oc2=O)c2c(O)c3ccccc3oc2=O)ccc1OC , readout=GI50) returns 19.6 µM (inactive)

get_value(item= COc1c(C)cc2c(c1O)C1NC(C2)[C@H](O)N2C3COC(=O)[C@@]4(CS[C@@H](c5c(OC(C)=O)c(C)c6c(c53)OCO6)C12)NCCC1=C4NC2C=CC=CC12 (some centres undefined) , readout=GI50) returns < 0.01 µM (active)

get_value(item= CC(C)CC(NC(=O)C(CC(C)C)NC(=O)C(Cc1c[nH]cn1)NC(=O)C(C)NC(=O)C(NC(=O)C(C)NC(=O)C(Cc1c[nH]c2ccccc12)NC(=O)C(CCC(=O)O)NC(=O)C(N)Cc1ccccc1)C(C)C)C(N)=O (centres undefined) (H-FEWAVAHLL-NH2; configuration not given here) , readout=GI50) returns > 12.5 µM (inactive)

Data provenance: ChEMBL document CHEMBL1201862
